- System: HeLa Kyoto;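 note: synchronized HeLa Kyoto cells, proteins quantified by TMT10plex mass spectrometry, three biological replicates, mitosis taken 0.5 h after nocodazole release, G1/S directly after double thymidine block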
- run_description: thermal stability score vs G1/S (z-score of summed log2 fold changes over temperatures); higher = more thermally stable than in G1/S
- measurement_parameters: cell cycle stage: mitosis
Entries and their measured thermal stability score follow.

Below, each entry is followed by its recorded thermal stability score result.
MKPLVVFVLGGPGAGKGTQCARIVEKYGYTHLSAGELLRDERKNPDSQYGELIEKYIKEGKIVPVEITISLLKREMDQTMAANAQKNKFLIDGFPRNQDNLQGWNKTMDGKADVSFVLFFDCNNEICIERCLERGKSSGRSDDNRESLEKRIQTYLQSTKPIIDLYEEMGKVKKIDASKSVDEVFDEVVQIFDKEG [CMPK1] ... 0.905
MELFLAGRRVLVTGAGKGIGRGTVQALHATGARVVAVSRTQADLDSLVRECPGIEPVCVDLGDWEATERALGSVGPVDLLVNNAAVALLQPFLEVTKEAFDRSFEVNLRAVIQVSQIVARGLIARGVPGAIVNVSSQCSQRAVTNHSVYCSTKGALDMLTKVMALELGPHKIRVNAVNPTVVMTSMGQATWSDPHKAKTMLNRIPLGKFAEVEHVVNAILFLLSDRSGMTTGSTLPVEGGFWAC [DCXR] ... -1.77

# input for lookup
Q. Give recorded thermal stability score. MAMLRVQPEAQAKVDVFREDLCTKTENLLGSYFPKKISELDAFLKEPALNEANLSNLKAPLDIPVPDPVKEKEKEERKKQQEKEDKDEKKKGEDEDKGPPCGPVNCNEKIVVLLQRLKPEIKDVIEQLNLVTTWLQLQIPRIEDGNNFGVAVQEKVFELMTSLHTKLEGFHTQISKYFSERGDAVTKAAKQPHVGDYRQLVHELDEAEYRDIRLMVMEIRNAYAVLYDIILKNFEKLKKPRGETKGMIY [PSME1]
A. -1.23
